# TEST_SUMMARY: Lactate dehydrogenase (LDH) release assay
# Type: cell-based
# COND: LDH: Cytotoxicity assay: EC50
Positions of bridges follow the written chain, without caps; N, C: chain ends. Non-standard residues stand in square brackets, D forms with d. Residues, ends and D or L forms follow the SMILES beside them. Lys(N3) = [N-]=[N+]=NCCCC[C@H](N)C(=O)O; R8 = C=CCCCCCC[C@@](C)(N)C(=O)O; Cba = N[C@@H](CC1CCC1)C(=O)O; S5 = C=CCCC[C@](C)(N)C(=O)O; βAla = NCCC(=O)O
PROPERTY_MEASURED: EC50

>  <COMPOUND>
CC(=O)N[C@@H](CCCCN=[N+]=[N-])C(=O)NCCC(=O)N1CCC[C@H]1C(=O)N[C@H](C(=O)N[C@@H](Cc1ccccc1)C(=O)N[C@]1(C)CCCCCCC=CCCC[C@@](C)(C(=O)N[C@@H](CO)C(=O)N[C@@H](C)C(=O)N[C@@H](C)C(N)=O)NC(=O)[C@H](CC2CCC2)NC(=O)[C@H](CCC(N)=O)NC(=O)[C@H](C)NC(=O)[C@H](Cc2c[nH]c3ccccc23)NC(=O)[C@H](Cc2ccc(O)cc2)NC(=O)[C@H](CCC(=O)O)NC1=O)[C@@H](C)O [MP-259] (Ac-[Lys(N3)][βAla]PTF[R8]EYWAQ[Cba][S5]SAA-NH2; staple 6-13)

>  <EC50>
> 50.6 µM

$$$$

Look up EC50 for the entries below, preserving their order.
1. CC(=O)N[C@@H](CCCCN=[N+]=[N-])C(=O)NCCC(=O)N[C@@H](CO)C(=O)N[C@H](C(=O)N[C@@H](Cc1ccccc1)C(=O)N[C@]1(C)CCCCCCC=CCCC[C@@](C)(C(=O)N[C@@H](CO)C(=O)N[C@@H](CO)C(=O)N[C@@H](CO)C(N)=O)NC(=O)[C@H](CC2CCC2)NC(=O)[C@H](CCC(N)=O)NC(=O)[C@H](CO)NC(=O)[C@H](Cc2c[nH]c3ccccc23)NC(=O)[C@H](Cc2ccc(O)cc2)NC(=O)[C@H](CO)NC1=O)[C@@H](C)O [MP-667] (Ac-[Lys(N3)][βAla]STF[R8]SYWSQ[Cba][S5]SSS-NH2; staple 6-13)
2. CC(=O)N[C@@H](CCCCN)C(=O)NCCCCCC(=O)N[C@H](C(=O)N[C@@H](CO)C(=O)N[C@@H](Cc1ccccc1)C(=O)N[C@]1(C)CCCCCCC=CCCC[C@@](C)(C(=O)N[C@@H](CCC(=O)O)C(=O)N[C@@H](CC(N)=O)C(=O)N[C@@H](Cc2ccccc2)C(N)=O)NC(=O)[C@H](CC(C)C)NC(=O)[C@H](CC(C)C)NC(=O)[C@H](C)NC(=O)[C@H](Cc2c[nH]c3ccccc23)NC(=O)[C@H](Cc2ccc(O)cc2)NC(=O)[C@H](CCC(=O)O)NC1=O)[C@@H](C)O [MP-6210]

Response:
> 50.6 µM
> 50.7 µM
